Target: UniProt Q99685
Sequence (whole entry): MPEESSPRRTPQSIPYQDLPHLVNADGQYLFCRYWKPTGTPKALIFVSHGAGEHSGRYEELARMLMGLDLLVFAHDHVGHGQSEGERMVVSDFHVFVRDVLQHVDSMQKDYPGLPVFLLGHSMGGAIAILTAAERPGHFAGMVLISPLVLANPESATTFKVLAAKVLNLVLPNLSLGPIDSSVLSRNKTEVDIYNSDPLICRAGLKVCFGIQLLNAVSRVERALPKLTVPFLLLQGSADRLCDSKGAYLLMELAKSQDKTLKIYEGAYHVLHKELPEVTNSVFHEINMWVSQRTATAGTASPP
Assay: Inhibition of human N-terminal histidine tagged full length MAGL expressed in Escherichia coli at 10 uM by coumarin ester substrate fluorescence assay
The source made the active and inactive calls. The rule behind the calls is not given here.
READOUT: inhibition

Below: 10 molecules and their reported inhibition.
- MOLECULE: "CCCCCCCC(=O)OC(CNC(=O)ON=C1CCCCC1)COC (racemic)"
  inhibition: "inactive"
- MOLECULE: "O=C(NCCCCCCNC(=O)ON=C1CCCCC1)ON=C1CCCCC1"
  inhibition: "22%"
- MOLECULE: "CCCCCCCCCCC[C@@H](C[C@@H]1OC(=O)[C@H]1CCCCCC)OC(=O)[C@H](NC=O)[C@H](C)CC"
  inhibition: "39%"
- MOLECULE: "COCC(CNC(=O)CCCc1ccc(-c2ccccc2)cc1)OC(=O)CCCc1ccc(-c2ccccc2)cc1 (racemic)"
  inhibition: "inactive"
- MOLECULE: "CCCCCCCCCCC[C@@H](C[C@@H]1OC(=O)[C@H]1CCCCCC)OC(=O)[C@@H](NC=O)[C@H](C)CC"
  inhibition: "1%"
- MOLECULE: "CCCCCCCCCCC[C@@H](C[C@@H]1OC(=O)[C@H]1CCCCCC)OC(=O)[C@H](CC(C)C)NC=O"
  inhibition: "47%"
- MOLECULE: "CCCCCCCCCCCCCC1CC(=O)O1 (racemic)"
  inhibition: "4%"
- MOLECULE: "CCCCCCC[C@H]1OC(=O)[C@H]1CCCCCC (racemic)"
  inhibition: "100%"
- MOLECULE: "CCCCCCCCCCC[C@@H](C[C@@H]1OC(=O)[C@H]1CCCCCC)OC(=O)[C@H](NC=O)[C@@H](C)CC"
  inhibition: "42%"
- MOLECULE: "CCCCCCCCOC(=O)NCC(COC)OC(=O)CCCCCCC (racemic)"
  inhibition: "inactive"

**Q:** Param item = CCCCCCCC/C=C\CCCCCCCC(=O)OC(COC)COC(=O)NCCCCCCCC (racemic) ; retrieve measured inhibition.
**A:** inactive

**Q:** inhibition lookup needed for CCCCCCCC/C=C\CCCCCCCC(=O)OC(CNC(=O)OCCCCCCCC)COC (racemic) , thanks.
**A:** inactive

**Q:** # get_value(readout='inhibition', item= `O=C(N[C@H]1COC1=O)OCc1ccccc1` )
**A:** 13%

**Q:** # input molecule: COCC(O)CNC(=O)ON=C1CCCCC1 (racemic) ; wanted: its inhibition
**A:** inactive

**Q:** Please report the recorded inhibition for `NC(=O)c1cccc(-c2cccc(OC(=O)NC3CCCCC3)c2)c1` .
**A:** 18%

**Q:** Would you kindly share the measured inhibition for CCCCC/C=C\C/C=C\C/C=C\C/C=C\CCCC(=O)OC(COC)COC(=O)NCCCCCCCC (racemic) ?
**A:** inactive
